# credit: patent US9458141B2

- assayTarget: human TSHR (Homo sapiens, UniProt P16473)
- Construct: expressed in transfected cells
- Sequence (P16473 21-764): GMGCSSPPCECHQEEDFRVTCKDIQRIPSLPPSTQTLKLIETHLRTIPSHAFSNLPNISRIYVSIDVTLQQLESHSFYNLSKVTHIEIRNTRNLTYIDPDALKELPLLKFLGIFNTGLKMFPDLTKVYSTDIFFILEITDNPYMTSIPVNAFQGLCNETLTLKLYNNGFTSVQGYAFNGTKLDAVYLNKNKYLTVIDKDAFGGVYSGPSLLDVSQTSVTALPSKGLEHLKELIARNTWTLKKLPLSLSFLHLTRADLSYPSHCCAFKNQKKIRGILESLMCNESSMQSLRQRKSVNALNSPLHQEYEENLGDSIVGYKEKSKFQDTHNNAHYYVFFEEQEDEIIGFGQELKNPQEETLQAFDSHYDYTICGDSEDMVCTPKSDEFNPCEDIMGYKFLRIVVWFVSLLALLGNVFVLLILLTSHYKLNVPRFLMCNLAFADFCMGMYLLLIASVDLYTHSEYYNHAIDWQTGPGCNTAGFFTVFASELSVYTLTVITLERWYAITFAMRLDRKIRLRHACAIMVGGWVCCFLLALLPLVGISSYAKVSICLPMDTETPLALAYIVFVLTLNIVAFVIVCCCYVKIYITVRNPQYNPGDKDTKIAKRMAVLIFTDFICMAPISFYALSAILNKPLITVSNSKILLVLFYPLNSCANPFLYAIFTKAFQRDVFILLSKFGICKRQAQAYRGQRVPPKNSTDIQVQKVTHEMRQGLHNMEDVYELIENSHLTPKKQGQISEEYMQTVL
- protocolDetails: Homogeneous Time Resolved Fluorescence (HTRF) cAMP assay, TSHR cell line
- Assay type: cell-based
- assayContext: 100% activity = response of 30 mU/ml TSH, 0% = DMSO control; in %
metric: Maximum Activity compared to TSH

// solved cases for Maximum Activity compared to TSH follow
COc1ccc(C2Nc3ccccc3C(=O)N2Cc2cccc(C(F)(F)F)c2)cc1COc1ccc(NC(C)=O)cc1 (centres unmarked) [Structure 60] | 189.97
COc1ccc(CN(Cc2ccccc2)C(=O)c2ccccc2)cc1COc1ccc(NC(C)=O)cc1 [Structure 58] | 93.09
COc1ccc(C(=O)N(Cc2cccs2)Cc2cccs2)c(O)c1 [Structure 108] | 63.12

P. COc1ccc(C(=O)N(Cc2ccco2)Cc2cccs2)c(O)c1 [Structure 101]
Q. COc1ccc(CN(Cc2ccccc2)C(=O)c2cccc(C#N)c2)cc1COc1ccc(NC(C)=O)cc1 [Structure 75]
Challenge: Which value of Maximum Activity compared to TSH is numerically greater: that of P or that of Q ? Respond using the label that marks the chosen record.
Response given: P

1. COc1ccc(C2Nc3ccccc3C(=O)N2Cc2ccco2)cc1COc1ccc(NC(C)=O)cc1 (centres unmarked) [Structure 14]
2. COc1ccc(C2Nc3ccccc3C(=O)N2Cc2ccccn2)cc1COc1ccc(NC(C)=O)cc1 (centres unmarked) [Structure 115]
Challenge: Would you let me know which has the greater Maximum Activity compared to TSH value, 1 or 2 ? State the label of the item chosen.
Response given: 1

----------
- assayTarget: human TSHR (Homo sapiens, UniProt P16473)
- Construct: expressed in transfected cells
- protocolDetails: Homogeneous Time Resolved Fluorescence (HTRF) cAMP assay, TSHR cell line
- Assay type: cell-based
- assayContext: 100% activity = response of 30 mU/ml TSH, 0% = DMSO control; in %
metric: Maximum Activity compared to TSH

A selection of reference data follows.
COc1ccc(-c2nc3ccc(NC(C)=O)cc3c(=O)n2Cc2cccc(Cl)c2)cc1COc1ccc(NC(C)=O)cc1 [Structure 110] | 48.00
COc1ccc(C2Nc3cccc(O)c3C(=O)N2Cc2ccccc2)cc1COc1ccc(NC(C)=O)cc1 (centres unmarked) [Structure 28] | 405.10
COc1ccc(C2Nc3ccccc3C(=O)N2Cc2cccc3ccccc23)cc1COc1ccc(NC(C)=O)cc1 (centres unmarked) [Structure 86] | 51.11
COc1ccc(C2Nc3ccccc3C(=O)N2CCc2ccccc2)cc1COc1ccc(NC(C)=O)cc1 (centres unmarked) [Structure 70] | 53.96
COc1ccc(C(=O)N(Cc2ccccc2)Cc2cccs2)c(O)c1 [Structure 92] | 133.48

P. COc1ccc(C2Nc3cccc(O)c3C(=O)N2Cc2ccccc2)cc1COc1ccc(NC(C)=O)cc1 (centres unmarked) [Structure 61]
Q. COc1ccc(CN(Cc2ccccc2)C(=O)c2ccccc2)cc1COc1ccc(NC(C)=O)cc1 [Structure 57]
Challenge: Quick one: lower Maximum Activity compared to TSH, P or Q ? Record your answer as the label of the chosen record.
Response given: Q
(Q: 100.67, P: 302.11)

----------
- assayTarget: human TSHR (Homo sapiens)
- Construct: expressed in transfected cells
- protocolDetails: Homogeneous Time Resolved Fluorescence (HTRF) cAMP assay, TSHR cell line
- Assay type: cell-based
- assayContext: 100% activity = response of 30 mU/ml TSH, 0% = DMSO control; in %
- Excerpt: Generation of Stable Cell-Lines Expressing TSHR, LHCGR or FSHR. cDNA for human TSHR was amplified by PCR from hTSHR-pSVL (1) and inserted into the pcDNA3.1(−)/hygromycin vector using restriction sites XhoI and BamHI. cDNA for human LHCGR was amplified by PCR from hLHR-pGS5 (2) and was inserted into the pcDNA3.1(+)/hygromycin vector using restriction sites BamHI and XhoI. […] Homogeneous Time Resolved Fluorescence (HTRF) cAMP Assay. […]
metric: Maximum Activity compared to TSH

Reference set (3 entries):
COc1ccc(C2Nc3ccccc3C(=O)N2Cc2ccccc2OC)cc1COc1ccc(NC(C)=O)cc1 (stereo not shown) [Structure 279] | 20.50
COc1ccc(C2Nc3ccccc3C(=O)N2Cc2cccc(Cl)c2)cc1COc1ccc(NC(C)=O)cc1 (stereo not shown) [Structure 50] | 70.37
COc1ccc(CN2C(=O)c3ccccc3NC2c2ccc(OC)c(COc3ccc(NC(C)=O)cc3)c2)cc1 (stereo not shown) [Structure 3] | 93.95

P. COc1ccc(CN(Cc2ccccc2)C(=O)c2ccncc2)cc1COc1ccc(NC(C)=O)cc1 [Structure 117]
Q. COc1ccc([C@H]2[C@H](c3ccccc3)C(=O)N2Cc2ccccc2)cc1COc1ccc(NC(C)=O)cc1 [Structure 85]
Challenge: Field: lower recorded Maximum Activity compared to TSH (choose P or Q ) State the label of the item chosen.
Response given: Q
(Q: 54.95, P: 87.19)

P. COc1ccc(C2Nc3ccccc3C(=O)N2Cc2cccc(C(F)(F)F)c2)cc1COc1ccc(NC(C)=O)cc1 (stereo not shown) [Structure 27]
Q. COc1ccc(C2Nc3ccccc3C(=O)N2Cc2ccc(C(F)(F)F)cc2)cc1COc1ccc(NC(C)=O)cc1 (stereo not shown) [Structure 234]
Challenge: Of the two listed items, which has the higher Maximum Activity compared to TSH? First: P Second: Q State your choice using its label.
Response given: P
(P: 123.52, Q: 18.00)
